Numbers sourced from patent US10786508B2.

What activation at 0.1 µM was measured for each of the following?
system: glucocerebrosidase (Gcase) (Homo sapiens)
Construct: micellar solution containing 10 nM GCase and 100 nM saposin C
Sequence (P04062 40-536): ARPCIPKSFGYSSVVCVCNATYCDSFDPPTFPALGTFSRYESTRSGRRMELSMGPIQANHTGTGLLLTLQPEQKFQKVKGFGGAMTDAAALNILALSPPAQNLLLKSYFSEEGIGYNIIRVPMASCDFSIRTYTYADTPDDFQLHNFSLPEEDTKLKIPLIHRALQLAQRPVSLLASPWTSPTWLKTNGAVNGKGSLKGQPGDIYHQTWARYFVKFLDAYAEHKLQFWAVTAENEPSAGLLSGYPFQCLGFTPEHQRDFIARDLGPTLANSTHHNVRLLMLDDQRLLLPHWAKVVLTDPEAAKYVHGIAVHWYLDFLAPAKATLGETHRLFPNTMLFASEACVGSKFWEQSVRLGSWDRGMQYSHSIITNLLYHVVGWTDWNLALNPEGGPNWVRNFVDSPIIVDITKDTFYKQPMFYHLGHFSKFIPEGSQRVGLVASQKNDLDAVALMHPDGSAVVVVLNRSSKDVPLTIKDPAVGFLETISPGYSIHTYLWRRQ
assay info: Glucocerebrosidase (Gcase) activation assay, 4-methylumbelliferyl-beta-D-glucopyranoside substrate, with saposin C
Assay type: biochemical
condition context: 0.1 μM test compound; 10 nM GCase, 100 nM saposin C, pH 4.7; read-out: Percent Gease Activation 0.1 μM Test Compound

stdin: # activation at 0.1 µM lookup, item Cc1cc(C)n2cnc(C(=O)NC3CCc4ccccc43)c2n1 (centres unmarked) [III-68]
stdout: < 10%

stdin: # activation at 0.1 µM lookup, item Cc1cc(C)n2cnc(C(=O)Nc3cccc4c3CCC4)c2n1 [III-65]
stdout: 10 to 20%

stdin: # activation at 0.1 µM lookup, item Cc1cc(C)n2cnc(C(=O)Nc3ccc(-c4cccs4)nc3)c2n1 [III-29]
stdout: 10 to 20%

stdin: # activation at 0.1 µM lookup, item Cc1cc(C)n2cnc(C(=O)Nc3ccc4c(c3)CCC4)c2n1 [III-22]
stdout: 10 to 20%

stdin: # activation at 0.1 µM lookup, item Cc1cc(C)n2cnc(C(=O)Nc3ccc4[nH]ncc4c3)c2n1 [III-8]
stdout: < 10%

stdin: # activation at 0.1 µM lookup, item COc1ccc(F)cc1C(C)NC(=O)c1ncn2c(C)cc(C)nc12 (centres unmarked) [III-79]
stdout: < 10%

stdin: # activation at 0.1 µM lookup, item Cc1cc(C)n2cnc(C(=O)NC(C)(C)c3cccc(Cl)c3)c2n1 [III-82]
stdout: < 10%

stdin: # activation at 0.1 µM lookup, item C#Cc1ccc(C(C)(C)NC(=O)c2ncn3c(C)cc(C)nc23)cc1 [III-42]
stdout: < 10%

stdin: # activation at 0.1 µM lookup, item CCCOc1cccc(C(C)(C)NC(=O)c2ncn3c(C4CC4)cc(COC)nc23)c1 [III-50]
stdout: 10 to 20%

stdin: # activation at 0.1 µM lookup, item Cc1cc(C)n2cnc(C(=O)Nc3ccc4c(c3)CCNC4)c2n1 [III-16]
stdout: < 10%

stdin: # activation at 0.1 µM lookup, item Cc1cc(C)n2cnc(C(=O)Nc3ccc4nc(C)oc4c3)c2n1 [III-15]
stdout: < 10%

stdin: # activation at 0.1 µM lookup, item Cc1cc(C(C)C)n2cnc(C(=O)Nc3cccc4c3CCC4)c2n1 [III-45]
stdout: > 20%

stdin: # activation at 0.1 µM lookup, item COCC#Cc1ccc(NC(=O)c2ncn3c(C)cc(C)nc23)cc1 [III-2]
stdout: < 10%

stdin: # activation at 0.1 µM lookup, item COCc1cc(C2CC2)nc2c(C(=O)NC3(C)CCOc4c(F)ccc(F)c43)ncn12 (centres unmarked) [III-33]
stdout: 10 to 20%

stdin: # activation at 0.1 µM lookup, item CCOCc1cccc(C(C)(C)NC(=O)c2ncn3c(COC)cc(C4CC4)nc23)c1 [III-59]
stdout: < 10%

stdin: # activation at 0.1 µM lookup, item CCCOc1cccc(C(C)(C)NC(=O)c2ncn3c(COC)cc(C4CC4)nc23)c1 [III-51]
stdout: > 20%

stdin: # activation at 0.1 µM lookup, item CCC(NC(=O)c1ncn2c(C)cc(C)nc12)c1cccc(Cl)c1 (centres unmarked) [III-81]
stdout: 10 to 20%

stdin: # activation at 0.1 µM lookup, item CCCOc1cccc(C(C)(C)NC(=O)c2ncn3c(COC)c(OC)c(C)nc23)c1 [III-53]
stdout: < 10%

stdin: # activation at 0.1 µM lookup, item Cc1cc(C)n2cnc(C(=O)Nc3ccc4c(c3)OCO4)c2n1 [III-12]
stdout: < 10%

stdin: # activation at 0.1 µM lookup, item CCC(NC(=O)c1ncn2c(C)cc(C)nc12)c1ccc(F)cc1 (centres unmarked) [III-78]
stdout: < 10%
